system: 616215-338-R-J1-PDC complex spheroid viability; assay: Anticancer human tumor 616215-338-R-J1-PDC patient-derived colon adenocarcinoma cell line growth inhibition [POLQ]; details: second compound 1 µM; first compound 0.316 µM; stronger effect = lower value;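 note: spheroids exposed to compounds for one week before readout; percent viability relative to DMSO vehicle wells taken as 100%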
property: viability, T/C (%)
Report the figure in % without appending any unit label.

Worked cases, answers included:
COc1cc(C2c3cc4c(cc3C(OC3OC5COC(C)OC5C(O)C3O)C3COC(=O)C23)OCO4)cc(OC)c1O (stereo not drawn) + COC1C(OC(N)=O)C(O)C(Oc2ccc3c(O)c(NC(=O)c4ccc(O)c(CC=C(C)C)c4)c(=O)oc3c2C)OC1(C)C: 92.5
CCCS(=O)(=O)Nc1ccc(F)c(C(=O)c2c[nH]c3ncc(-c4ccc(Cl)cc4)cc23)c1F + Cc1cccc(N(C)C(=O)C2C(O)CCN2c2nc(C)cc(C(F)(F)F)c2C#N)c1: 104

Switching to the query record.
For the record CCc1cc2c(N3CCc4c(cc(Cn5ccnc5)cc4-c4cn(C)nc4C(F)(F)F)C3=O)cc(C)nc2c(OC)n1 + Nc1ccc(C#CCN(C(=O)Cc2ncc(C(F)(F)F)cc2C(F)(F)F)c2ccc(F)cc2)nn1 , what value of viability, T/C is listed for 616215-338-R-J1-PDC complex spheroid viability?
91.5

Values were extracted from PubChem BioAssay AID1963843.
